target: MRFAP1; test: reporter assay of Huesken 2005; conditions: siRNA; also: test concentration or dose not given here
Oligonucleotides are written 5' to 3', each unit as a sugar letter and its base; * is a phosphorothioate linkage, no mark a phosphodiester; rarer units and linkages stand in square brackets, end groups in braces. Plain capitals give the bases only. d = 2'-deoxy (DNA); r = 2'-OH (RNA)
MEASURE NAME: normalised inhibition (eCFP-eYFP dual reporter) (%)

>>> measured_value("sense rUrCrUrGrCrUrGrCrCrCrGrUrCrArUrCrCrArCdTdT / antisense rGrUrGrGrArUrGrArCrGrGrGrCrArGrCrArGrAdAdA")
35.3
>>> measured_value("sense rCrGrGrArCrGrCrGrCrGrCrCrCrGrUrGrCrGrCdTdT / antisense rGrCrGrCrArCrGrGrGrCrGrCrGrCrGrUrCrCrGdCdG")
19.7
>>> measured_value("sense rCrArUrGrCrArGrCrArArUrGrGrCrArGrArArGdTdT / antisense rCrUrUrCrUrGrCrCrArUrUrGrCrUrGrCrArUrGdGdA")
79.1
